Numbers sourced from PubChem BioAssay (NCI).

Provide the recorded growth for the entries that follow.
System: BT-549 breast
experimental protocol: NCI-60 one-dose screen, 48 h (100 = growth as untreated, 0 = no growth, -100 = all killed)
measurement setup: 10 µM unless noted
The panel holds about 83,000 compounds, 20% with a hit somewhere; the sample as a whole holds those more often.
One number for each entry, in %.

Worked cases, growth given:
INSERT INTO assay_data (compound, units_text, observed) VALUES
  ('Cc1cccc(Cl)c1NC(=O)c1cnc(Nc2cc(N3CCOCC3)cc(N3CCOCC3)c2)s1', '%', 56.3),
  ('CNC(=O)c1c(C)oc2cc(Oc3ncnc4cc(OC)c(OC)cc34)ccc12', '%', 73.6),
  ('Nc1ncnc2c1c(-c1cccc(OCc3ccccc3)c1)cn2C1CC(CN2CCC2)C1 (stereo not given)', '%', 33);

// each compound listed below needs its growth
1. Cc1ccccc1Nc1nc2nonc2nc1Nc1cccc(C)c1C
2. COc1ccc(COc2cc3oc(=O)c4cc(C(C)O)ccc4c3cc2OC)cc1 (stereo not given)
3. CC(C)n1c(NCCc2ccc(O)c(O)c2)nc2c1c(=O)n(C)c(=O)n2C
4. COC1CCC(N2C(=O)CNc3ncc(-c4ccc(C(C)(C)O)nc4)nc32)CC1 (stereo not given)
5. CC(C)(C)CC(C)(C)Nc1c(-c2c(O)c3ccccc3oc2=O)nc2c(Cl)cc(C(F)(F)F)cn12

1. 51.7
2. 59.8
3. 84.5
4. -8.77
5. 78.7

Need growth for each of these compounds.
1. O=C(c1ccccc1)C(c1ccccc1)N1CCOCC1 (stereo not given)
2. Cc1csc(-c2nnc(Nc3ccc(Oc4ncccc4-c4ccnc(N)n4)cc3)c3ccccc23)c1

1: 110; 2: 60.4
